- target.desc: T1, apical domain of cynomolgus CD71 (cynomolgus, UniProt A0A2K5X958 189-383)
- T1 construct: domain: apical domain; also called Cyno apical domain
- measurement.protocol: primary ELISA; further: test concentration or dose not given here
metric: RLU (RLU)

INSERT INTO assay_data (binder, metric, assay_value) VALUES
  ('CD71-binding FN3 domain of SEQ ID NO: 136 (designed binder) MSLPAPKNLVVSRVTEDSARLSWTAPDAAFDSFEIDYVEFIFTGEAIGLIVPGSERSYDLTGLKPGTEYWVTIAGVKGGEWSTPLQAFLTT', 'RLU', '4.46e+06'),
  ('CD71-binding FN3 domain of SEQ ID NO: 192 (designed binder) MSLPAPKNLVVSRVTEDSARLSWTAPDAAFDSFEIGYFENLYLGEAIVLTVPGSERSYDLTGLKPGTEYWVQIGGVKGGWGSNPLSAIFTT', 'RLU', '3.91e+06'),
  ('CD71-binding FN3 domain of SEQ ID NO: 135 (designed binder) MSLPAPKNLVVSRVTEDSARLSWTAPDAAFDSFFIGYLEPQSPGEAIALYVPGSERSYDLTGLKPGTEYNVTIQGVKGGFPSEPLIANFTT', 'RLU', '6.07e+06'),
  ('CD71-binding FN3 domain of SEQ ID NO: 163 (designed binder) MSLPAPKNLVVSRVTEDSARLSWTAPDAAFDSFFIGYLEPQPPGEVIHLYVPGSERSYDLTGLKPGTEYVVFIGGVKGGVWSVPLSAIFTT', 'RLU', '5.14e+06'),
  ('CD71-binding FN3 domain of SEQ ID NO: 143 (designed binder) MSLPAPKNLVVSRVTEDSARLSWTAPDAAFDSFAIQYVEVIGSGEAIELIVPGSERSYDLTGLKPGTEYHVYIDGVKGGKDSKPLYAGFTT', 'RLU', '4.41e+06');

a: CD71-binding FN3 domain of SEQ ID NO: 134 (designed binder) MSLPAPKNLVVSRVTEDSARLSWTAPDAAFDSFDINYWENESGGEAIALFVPGSERSYDLTGLKPGTEYLVTIAGVKGGWWSKPLYATFTT
b: CD71-binding FN3 domain of SEQ ID NO: 193 (designed binder) MSLPAPKNLVVSRVTEDSARLSWTAPDAAFDSFEIGYFENLYLGEAIVLTVPGSERSYDLTGLKPGTEYWVQIGGVKGGNWSEPLSAIFTT
Problem: Which has the higher RLU, a or b ? Return value: the label identifying the chosen record.
Result: a
(a: 5.77e+06 RLU, b: 3.95e+06 RLU)

Numbers sourced from patent US20260151494A1.
